Entries and their measured MIC follow.
# Tested on: Staphylococcus aureus
# Test description: Antibacterial activity against methicillin-resistant Staphylococcus aureus 86 assessed as bacterial growth inhibition in presence of 50 ug/ml calcium ions by CLSI protocol based broth microdilution method
# Format: functional

Item smiles	MIC
CCCCCCCCCC(=O)N[C@@H](Cc1c[nH]c2ccccc12)C(=O)N[C@@H](CC(N)=O)C(=O)N[C@@H](CC(=O)O)C(=O)N[C@@H]1C(=O)NCC(=O)N[C@@H](Cc2c[nH]cn2)C(=O)N[C@@H](CC(=O)O)C(=O)N[C@H](C)C(=O)N[C@@H](CC(=O)O)C(=O)NCC(=O)N[C@H](CO)C(=O)N[C@@H]([C@@H](C)CC(=O)O)C(=O)N[C@@H](CC(=O)c2ccccc2N)C(=O)O[C@@H]1C	8 µg/mL
C[C@H]1NC(=O)[C@H](CC(=O)O)NC(=O)[C@H](CCCN)NC(=O)CNC(=O)[C@@H](NC(=O)[C@H](CC(=O)O)NC(=O)[C@H](CC(N)=O)NC(=O)[C@H](Cc2c[nH]c3ccccc23)NC(=O)c2ccc(C#CC#Cc3ccccc3)cc2)[C@@H](C)OC(=O)[C@H](CC(=O)c2ccccc2N)NC(=O)[C@H]([C@@H](C)CC(=O)O)NC(=O)[C@@H](CO)NC(=O)CNC(=O)[C@H](CC(=O)O)NC1=O	0.5 µg/mL
